Biological target: HumRADA2 (Pyrococcus furiosus, UniProt O74036, D220A/DEL288-314/E219S/I169M/K221M/V202Y/Y201A)
Test: Isothermal titration calorimetry (ITC), direct binding to HumRADA2
Conditions: LLE=pKD−clog P; clog P calculated with Instant JChem (ChemAxon); tryptophan ester series (Table 1)
The label is Yes for LLE below 0.7 and No for LLE equal to or exceeding 0.7.

{"columns": ["compound", "label_class"],
 "data": [
  ["COC(=O)C(Cc1c[nH]c2ccccc12)NC(C)=O (centres unmarked)", "No"],
  ["Cl.N[C@@H](Cc1c[nH]c2ccccc12)C(=O)OCCc1ccccc1F", "No"],
  ["Cl.N[C@@H](Cc1c[nH]c2ccccc12)C(=O)OCCCc1ccccc1", "Yes"],
  ["Cl.N[C@@H](Cc1c[nH]c2ccccc12)C(=O)OCCc1c[nH]c2ccccc12", "No"],
  ["CC(=O)N[C@@H](Cc1c[nH]c2ccccc12)C(=O)OCCc1ccccc1F", "No"],
  ["Cl.N[C@@H](Cc1c[nH]c2ccccc12)C(=O)OCCc1ccccc1O", "No"],
  ["Cc1ccc(CCOC(=O)C(N)Cc2c[nH]c3ccccc23)cc1 (centres unmarked)", "No"],
  ["CNC(=O)C(Cc1c[nH]c2ccccc12)NC(C)=O (centres unmarked)", "No"],
  ["CNC(=O)C(N)Cc1c[nH]c2ccccc12 (centres unmarked)", "No"],
  ["Cl.N[C@@H](Cc1c[nH]c2ccccc12)C(=O)OCCC1CCCCC1", "No"],
  ["O=C(NC(Cc1c[nH]c2ccccc12)C(=O)OCCc1ccccc1)c1ccccc1 (centres unmarked)", "Yes"],
  ["COC(=O)[C@@H](N)Cc1c[nH]c2ccccc12", "No"],
  ["Cl.N[C@@H](Cc1c[nH]c2ccccc12)C(=O)OCCc1ccccc1", "No"]
]}
